- ASSAY_NOTES: Cytotoxicity against human SF295 cells at 10 uM after 48 hrs by SRB assay
- Assay type: functional
- DETAILS: SF-295, 48 h, read-out: GI
I'd be grateful if you could share measured inhibition of growth at 10 µM for these entries.
Please reply with the bare figure in % and do not write the unit itself.

Q: Can you share its inhibition of growth at 10 µM? I mean this molecule: "Cc1nc2ccc(Nc3nc(Nc4ccc(F)cc4)nc(N4CCCCC4)n3)cc2n1Cc1ccccc1"
Result: 9.64

Q: I'd like to know its inhibition of growth at 10 µM. The molecule in question is "Cc1nc2cc(Nc3nc(NCCO)nc(Nc4ccc(F)cc4)n3)ccc2n1Cc1ccccc1"
Result: 13.6

Q: I have this molecule here, "Cc1nc2cc(Nc3nc(Nc4ccc(F)cc4)nc(Nc4ncccn4)n3)ccc2n1Cc1ccccc1" , and I need its recorded inhibition of growth at 10 µM.
Result: 15.6

Q: // returns reported inhibition of growth at 10 µM for input "Cc1nc2cc(Nc3nc(Nc4ccc(F)cc4)nc(Nc4ccc(F)cc4)n3)ccc2n1Cc1ccccc1"
Result: 8.21

Q: Which inhibition of growth at 10 µM reading was recorded for the molecule "Cc1nc2cc(Nc3nc(Nc4ccc(O)cc4)nc(Nc4ccc(F)cc4)n3)ccc2n1Cc1ccccc1" ?
Result: 5.35
